STUDY SYSTEM: abc isoform of human TMEM16A channel expressed in CHO cells (Homo sapiens, UniProt Q5XXA6, DEL476-501)
Construct: expressed in transfected cells; host or cells: CHO cells, doxycycline-inducible expression under Blasticidin/Zeocin selection
Sequence (Q5XXA6 with tags, fused parts or gaps isoform Q5XXA6-5 DEL539-564): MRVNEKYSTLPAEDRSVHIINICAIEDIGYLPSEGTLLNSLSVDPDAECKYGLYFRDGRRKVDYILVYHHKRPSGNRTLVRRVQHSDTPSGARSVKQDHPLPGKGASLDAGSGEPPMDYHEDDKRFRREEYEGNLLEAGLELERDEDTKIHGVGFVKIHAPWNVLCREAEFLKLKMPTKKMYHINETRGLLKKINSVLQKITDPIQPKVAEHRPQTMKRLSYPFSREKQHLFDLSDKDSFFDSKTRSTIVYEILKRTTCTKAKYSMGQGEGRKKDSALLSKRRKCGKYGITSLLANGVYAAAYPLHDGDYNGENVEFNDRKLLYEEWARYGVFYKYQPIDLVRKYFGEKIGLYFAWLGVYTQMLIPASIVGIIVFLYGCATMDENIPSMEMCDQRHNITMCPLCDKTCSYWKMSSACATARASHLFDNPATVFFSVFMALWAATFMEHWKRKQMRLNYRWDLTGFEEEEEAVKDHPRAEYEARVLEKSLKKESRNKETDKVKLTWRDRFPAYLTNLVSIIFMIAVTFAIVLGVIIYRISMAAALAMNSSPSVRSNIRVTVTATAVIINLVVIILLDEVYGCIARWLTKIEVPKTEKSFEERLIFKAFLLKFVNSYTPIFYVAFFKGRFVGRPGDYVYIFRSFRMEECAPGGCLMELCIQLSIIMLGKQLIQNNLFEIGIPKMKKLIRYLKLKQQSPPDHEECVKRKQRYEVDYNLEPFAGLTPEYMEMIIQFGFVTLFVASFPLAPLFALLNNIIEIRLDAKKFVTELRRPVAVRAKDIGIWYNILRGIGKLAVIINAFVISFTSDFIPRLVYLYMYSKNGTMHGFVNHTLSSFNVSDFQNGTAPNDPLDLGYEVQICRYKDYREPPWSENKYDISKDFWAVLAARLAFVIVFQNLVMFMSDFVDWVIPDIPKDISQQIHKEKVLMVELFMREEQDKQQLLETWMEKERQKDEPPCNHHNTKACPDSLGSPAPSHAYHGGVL
ASSAY INFO: Automated patch clamping (QPatch) assay to measure TMEM16A activity in whole-cell
Type: cell-based
CONDITION PARAMETERS: CHO, maximum current at highest dose relative to reference potentiator at maximal concentration (upper limit) and vehicle (lower limit); read-out: TMEM16A QPATCH assay EC50 V3 Assay Window (% TMEM16A max activation)
REPORTED PROPERTY: Emax (%)
Write the value in % as a bare number.

What does the record list as Emax for CCC(CC)NC(=O)c1cc(-c2cccc(-c3ncc(C(=O)NCC(=O)OC(C)C)o3)c2)[nH]n1 [Example 1.32] ?
77

What does the record list as Emax for CCC(CC)NC(=O)c1cnc(-c2cccc(-c3cc(C(=O)NCC4CCCCC4)n[nH]3)c2)o1 [Example 3.18] ?
66

What does the record list as Emax for CCOC(=O)[C@@H](NC(=O)c1cc(-c2cccc(-c3ncc(C(=O)NC(CC)CC)o3)c2)nn1CCOP(=O)(OCC)OCC)C(C)C [Example 11.0] ?
128

What does the record list as Emax for CCC(CC)NC(=O)c1cnc(-c2cccc(-c3cc(C(=O)NC4CCCC4)n[nH]3)c2)o1 [Example 3.48] ?
74

What does the record list as Emax for CCOC(=O)CCCn1nc(-c2cccc(-c3ncc(C(=O)NC(CC)CC)o3)c2)nc1C(=O)NC(CC)CC [Example 15.8] ?
95

What does the record list as Emax for CCC(CC)NC(=O)c1cc(-c2cccc(-c3ncc(C(=O)Nc4cccc(Cl)c4)o3)c2)[nH]n1 [Example 1.33] ?
66

What does the record list as Emax for COC(=O)[C@@H](NC(=O)c1cnc(-c2cccc(-c3nnc(C(=O)N[C@@H](C)C4CC4)[nH]3)c2)o1)C(C)(C)C [Example 12.10] ?
92

Source: patent US20220306617A1
